# Tested on: OVCAR-4
# Experiment description: NCI tumour cell line growth inhibition, 48 h
The source made the active and inactive calls. Cut-off read from the data, not from the text of the source: active = GI50 up to about 1.1 µM and inactive = higher.
Classes to choose from: active, inactive

Compound	Classification
CC1CCC(=O)C(C(O)CC2CC(=O)N(c3ccccc3)C(=O)C2)C1 (stereo unspecified)	inactive
O=C(CCCl)NN=C1NCCCN1	inactive
CC(C)(C)c1cc(C(P(=O)(O)O)P(=O)(O)O)cc(C(C)(C)C)c1O	inactive
COc1cc(OC)c(-c2cc(=O)c3c(OC)c(OC)c(OC)c(OC)c3o2)cc1OC	inactive
CC(=O)Nc1ccc(C2C(C(=O)Nc3ccccc3C)=C(C)NC(C)=C2C(=O)Nc2ccccc2C)cc1	inactive

Fill in: this test's call for CC(=O)n1nnc2ccc([N+](=O)[O-])cc21 is ___ inactive

Check C[As](C)SCC(NC(=O)CCC(N)C(=O)O)C(=O)NCC(=O)O.c1ccncc1 (stereo unspecified) too. active

Also, CC12CCC3C(CCC4=CC(O)CCC43C=O)C1(O)CCC2c1ccc(=O)oc1 (stereo unspecified) please. active

Follow-up entry: Cc1cccc(C(=O)O)c1CC1NCCC2c3ccccc3NC12 (stereo unspecified) inactive

// same read-out, input: CC(C)/C(=N\[N+](C)(C)C)c1ccccc1 inactive

Try this compound next: COC(=O)C1C(=O)O[C@@H](c2ccc(OC)cc2OC)C1C(=O)OC (stereo partly specified) inactive

Data provenance is ChEMBL document CHEMBL1201862.
